test system: Geotrichum candidum; experiment: Inhibition of DHPS in Geotrichum candidum assessed as antifungal activity by measuring inhibition zone at 5 mg/mL incubated for 48 hrs by disk diffusion method
Readout label: inhibition zone (IZ)

Study these solved cases before continuing.
* CN/C(S)=C(/C#N)C(=O)Nc1ccc(S(=O)(=O)Nc2onc(C)c2C)cc1 | 18.9 mm
* C=CCN/C(S[C@@H]1O[C@H](COC(C)=O)[C@@H](OC(C)=O)[C@H](OC(C)=O)[C@H]1OC(C)=O)=C(/C#N)C(=O)Nc1ccc(S(=O)(=O)Nc2onc(C)c2C)cc1 | 23.2 mm
* CCN/C(S[C@@H]1O[C@H](COC(C)=O)[C@@H](OC(C)=O)[C@H](OC(C)=O)[C@H]1OC(C)=O)=C(/C#N)C(=O)Nc1ccc(S(=O)(=O)Nc2onc(C)c2C)cc1 | 22.1 mm
* C=CCN/C(SCC)=C(/C#N)C(=O)Nc1ccc(S(=O)(=O)Nc2onc(C)c2C)cc1 | 22.1 mm
* Cc1noc(NS(=O)(=O)c2ccc(NC(=O)/C(C#N)=C(/S)NC34CC5CC(CC(C5)C3)C4)cc2)c1C | 14.7 mm

Proceed to the following item.
Asked: What does the record list as inhibition zone (IZ) for CCN/C(S[C@@H]1O[C@H](COC(C)=O)[C@H](OC(C)=O)[C@H](OC(C)=O)[C@H]1OC(C)=O)=C(/C#N)C(=O)Nc1ccc(S(=O)(=O)Nc2onc(C)c2C)cc1 ?
Given back: 18.3 mm
